# Test system: Paracoccus sp.
# TEST_DESCRIPTION: Anti-biofilm activity against Paracoccus sp. 4M6 assessed as inhibition of bacterial adhesion incubated for 15 hrs at 20 degC by Syto 61 dye based fluorimetric assay
# Format: functional
# EXPERIMENTAL_PARAMETERS: Paracoccus sp. (in: a-proteobacteria), 4M6, 15 h
pEC50: −log10 of the molar value.
MEASURE: pEC50

{"COMPOUND_STRUCTURE": "COc1ccc(-n2cc(C(=O)NCCc3ccc(O)cc3)nn2)cc1", "pEC50": 3.66}
{"COMPOUND_STRUCTURE": "COc1cccc(-n2cc(C(=O)NCCc3ccc(OC)c(OC)c3)nn2)c1", "pEC50": 3.81}
{"COMPOUND_STRUCTURE": "COc1ccc(CCNC(=O)c2cn(-c3ccc(OC)cc3)nn2)cc1", "pEC50": 3.59}
{"COMPOUND_STRUCTURE": "COc1ccc(CCNC(=O)c2cn(-c3cccc(OC)c3)nn2)cc1", "pEC50": 3.67}
{"COMPOUND_STRUCTURE": "COc1ccc(-n2cc(C(=O)NCCc3cccc(OC)c3)nn2)cc1", "pEC50": 3.67}
{"COMPOUND_STRUCTURE": "COc1ccc(-n2cc(C(=O)NCCc3ccc(OC)c(OC)c3)nn2)cc1", "pEC50": 3.79}
{"COMPOUND_STRUCTURE": "COc1cccc(CCNC(=O)c2cn(-c3cccc(OC)c3)nn2)c1", "pEC50": 3.65}

====

# System: Pseudoalteromonas ulvae
# TEST_DESCRIPTION: Effect on cell viability of Pseudoalteromonas ulvae TC14 at 100 uM measured every hr during 6 hrs by resazurin based assay
# Assay type: organism-based

{"COMPOUND_STRUCTURE": "COc1ccc(-n2cc(C(=O)NCCc3ccc(OC)c(OC)c3)nn2)cc1", "Activity": "Non-Toxic"}
{"COMPOUND_STRUCTURE": "COc1ccc(CCNC(=O)c2cn(-c3ccc(OC)cc3)nn2)cc1", "Activity": "Non-Toxic"}
{"COMPOUND_STRUCTURE": "CC1(C)S[C@@H]2[C@H](NC(=O)[C@H](N)c3ccccc3)C(=O)N2[C@H]1C(=O)O", "Activity": "Toxic"}
{"COMPOUND_STRUCTURE": "COc1ccc(CCNC(=O)c2cn(-c3cccc(OC)c3)nn2)cc1", "Activity": "Non-Toxic"}
